Listing: glycan array binding signal (z-score) of selected binders
# test.system: Gal(b1-3)Gal
# protocol.details: glycan array binding signal (z-score within array); higher = stronger binding
# setup.conditions: glycan notation: IUPAC condensed, linker removed
Only a selection was taken, and the strongest signals are over-represented in it overall.

binder: Cohesin-hMARCO (Homo sapiens) (protein) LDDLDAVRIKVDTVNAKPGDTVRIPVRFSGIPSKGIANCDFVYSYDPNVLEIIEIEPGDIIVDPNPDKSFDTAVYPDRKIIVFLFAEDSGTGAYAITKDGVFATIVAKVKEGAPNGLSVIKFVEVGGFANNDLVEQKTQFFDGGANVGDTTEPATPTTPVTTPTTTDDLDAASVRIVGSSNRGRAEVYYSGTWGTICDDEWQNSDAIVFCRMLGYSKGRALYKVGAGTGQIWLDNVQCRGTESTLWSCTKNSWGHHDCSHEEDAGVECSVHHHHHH
glycan array binding signal (z-score): -0.397
--
binder: Gal-9-hFc (Mus musculus), O08573-2 (protein) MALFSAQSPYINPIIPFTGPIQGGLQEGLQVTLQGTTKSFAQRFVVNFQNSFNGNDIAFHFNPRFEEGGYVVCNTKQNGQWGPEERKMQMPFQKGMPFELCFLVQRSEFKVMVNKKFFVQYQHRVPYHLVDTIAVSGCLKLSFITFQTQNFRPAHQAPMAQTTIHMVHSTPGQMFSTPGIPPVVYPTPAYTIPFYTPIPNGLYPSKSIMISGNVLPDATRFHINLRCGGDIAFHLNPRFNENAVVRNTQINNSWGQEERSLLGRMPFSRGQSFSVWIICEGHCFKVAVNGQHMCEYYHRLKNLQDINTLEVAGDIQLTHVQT
glycan array binding signal (z-score): 0.036

Hey, just so you know, these numbers are from the supplement of paper PMC8728848.
